Test system: HCV replicon (strain 1b) in HUH-7 cells
procedure.summary: HCV replicon FRET assay
Format: cell-based, Hepatitis C virus
condition.info: Hepatitis C virus, Huh-7, read-out: HCV Pro Replicon (EC50), HCV replicon cell assay; numeric values, unit inferred
// reported EC50 per item

compound	unit.descriptor	EC50
C=C[C@@H]1C[C@]1(NC(=O)[C@@H]1C[C@@H](Oc2nccc3cc(OC)ccc23)CN1C(=O)[C@@H](NC1=NCCCS1)C(C)(C)C)C(=O)NS(=O)(=O)C1CC1 [Compound 36]	nM	1420
C=C[C@@H]1C[C@]1(NC(=O)[C@@H]1C[C@@H](Oc2ncc(OC)c3ccc(Cl)cc23)CN1C(=O)C(Nc1ccc(C)nc1)C(C)(C)C)C(=O)NS(=O)(=O)C1CC1 (single isomer, unassigned) [Compound 26B]	nM	3190
C=C[C@@H]1C[C@]1(NC(=O)[C@@H]1C[C@@H](Oc2ncc(OC)c3ccc(Cl)cc23)CN1C(=O)C(Nc1cncnc1)C(C)C)C(=O)NS(=O)(=O)C1CC1 (single isomer, unassigned) [Compound 24A]	nM	593
C=C[C@@H]1C[C@]1(NC(=O)[C@@H]1C[C@@H](Oc2nccc3cc(OC)ccc23)CN1C(=O)[C@H](Nc1ccccc1)C(C)(C)C)C(=O)NS(=O)(=O)C1CC1 [Compound 15B]	nM	3380
C=C[C@@H]1C[C@]1(NC(=O)[C@@H]1C[C@@H](Oc2ncc(OC)c3ccc(Cl)cc23)CN1C(=O)C(Nc1cncc(C(F)(F)F)c1)C(C)(C)C)C(=O)NS(=O)(=O)C1CC1 (single isomer, unassigned) [Compound 27A]	nM	4.09

---

tested.on: HCV NS3/4A protease complex, BMS strain (UniProt P27958, species not given/STRAIN_BMS)
Construct: other: NS3/4A BMS strain; activity range class; numeric values, unit not given; said of H77 and J4L6S; fused on or other part: A three-lysine solubilising tail at the C-terminus of NS4A; A His tag is implied by the pET21b vector and Ni-NTA purification; Both are printed for the H77 and J4L6S constructs and apply to BMS by inference
Sequence (P27958 1027-1657, change not shown, one chain of several): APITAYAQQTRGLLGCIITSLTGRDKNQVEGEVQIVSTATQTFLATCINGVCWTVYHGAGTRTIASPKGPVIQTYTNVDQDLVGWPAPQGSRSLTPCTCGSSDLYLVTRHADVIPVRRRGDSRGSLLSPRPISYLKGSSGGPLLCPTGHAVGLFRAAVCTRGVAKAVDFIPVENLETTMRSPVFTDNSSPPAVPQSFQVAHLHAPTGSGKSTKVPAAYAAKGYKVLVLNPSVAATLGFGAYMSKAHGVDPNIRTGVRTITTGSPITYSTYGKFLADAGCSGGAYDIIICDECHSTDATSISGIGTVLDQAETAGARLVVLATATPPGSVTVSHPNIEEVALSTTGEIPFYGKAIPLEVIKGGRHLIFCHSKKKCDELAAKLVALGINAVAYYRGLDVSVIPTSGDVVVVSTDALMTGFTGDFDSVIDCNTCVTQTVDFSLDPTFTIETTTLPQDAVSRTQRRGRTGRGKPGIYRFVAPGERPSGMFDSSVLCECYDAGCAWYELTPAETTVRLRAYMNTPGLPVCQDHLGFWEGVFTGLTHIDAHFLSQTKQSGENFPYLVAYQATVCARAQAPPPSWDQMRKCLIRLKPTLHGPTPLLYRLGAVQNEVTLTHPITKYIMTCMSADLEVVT
procedure.summary: FRET peptide assay to monitor HCV NS3/4A proteolytic activity (BMS strain)
Format: biochemical, Hepatitis C virus (genotype 1a)
condition.info: read-out: HCV Protease (IC50); NS3/4A BMS strain; activity range class

molecule	IC50
C=C[C@@H]1C[C@]1(NC(=O)[C@@H]1C[C@@H](Oc2nccc3cc(OC)ccc23)CN1C(=O)[C@@H](Nc1nc(CC)cs1)C(C)(C)C)C(=O)NS(=O)(=O)C1CC1	0.6 to 20 nM
C=C[C@@H]1C[C@]1(NC(=O)[C@@H]1C[C@@H](Oc2nccc3cc(OC)ccc23)CN1C(=O)C(Nc1cc(C(F)(F)F)ccn1)C(C)C)C(=O)NS(=O)(=O)C1CC1 (single isomer, unassigned)	0.6 to 20 nM
C=C[C@@H]1C[C@]1(NC(=O)[C@@H]1C[C@@H](Oc2ncc(OC)c3ccc(Cl)cc23)CN1C(=O)[C@@H](Nc1cccc(C(=O)OC(C)C)c1)C(C)(C)C)C(=O)NS(=O)(=O)C1CC1 [231 first isomer]	0.6 to 20 nM
C=C[C@@H]1C[C@]1(NC(=O)[C@@H]1C[C@@H](Oc2ncc(OC)c3ccc(Cl)cc23)CN1C(=O)[C@H](Nc1ccc(S(=O)(=O)NCC)cc1)C(C)(C)C)C(=O)NS(=O)(=O)C1CC1 [223 second isomer]	> 200 nM
C=C[C@@H]1C[C@]1(NC(=O)[C@@H]1C[C@@H](Oc2ncc(OC)c3ccc(Cl)cc23)CN1C(=O)[C@@H](Nc1ccc(C#N)cc1)C(C)(C)C)C(=O)NS(=O)(=O)C1CC1 [205 first isomer]	0.6 to 20 nM
C=C[C@@H]1C[C@]1(NC(=O)[C@@H]1C[C@@H](Oc2nc(OC)cc3cc(OC)ccc23)CN1C(=O)C(Nc1ccccc1)C(C)(C)C)C(=O)NS(=O)(=O)C1CC1 (single isomer, unassigned) [20 second isomer]	20 to 200 nM
C=C[C@@H]1C[C@]1(NC(=O)[C@@H]1C[C@@H](Oc2nccc3cc(OC)ccc23)CN1C(=O)[C@@H](Nc1cccnc1)C(C)(C)C)C(=O)NS(=O)(=O)C1CC1 [13 first isomer]	20 to 200 nM
C=CCCCCCC(Nc1ccc(OC)nc1)C(=O)N1C[C@H](Oc2ncc(OC)c3ccc(Cl)cc23)C[C@H]1C(=O)N[C@]1(C(=O)NS(=O)(=O)C2CC2)C[C@H]1C=C (stereo partly drawn) [Compound 410]	> 200 nM
C=C[C@@H]1C[C@]1(NC(=O)[C@@H]1C[C@@H](Oc2nccc3cc(OC)ccc23)CN1C(=O)C(Nc1cc(C)cc(C)n1)C(C)C)C(=O)NS(=O)(=O)N(C)C (single isomer, unassigned)	0.6 to 20 nM

# credit: patent US7772180B2
